The entries below are paired with their reported folding stability dG.
B1: 1ZHC (parent)
chain: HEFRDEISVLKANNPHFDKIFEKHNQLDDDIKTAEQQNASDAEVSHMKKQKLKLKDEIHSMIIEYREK

- Variants of: B1
- assayOverview: folding stability dG (cDNA display proteolysis); higher = more stable
- cond: PBS, room temperature
recordedEndpoint: folding stability dG (kcal/mol)

>  <variantNotation>
Q26L

>  <recordedEndpoint>
folding stability dG

>  <observedMeasurement>
0.746

$$$$
>  <variantNotation>
N38G

>  <recordedEndpoint>
folding stability dG

>  <observedMeasurement>
1.55

$$$$
>  <variantNotation>
I63W

>  <recordedEndpoint>
folding stability dG

>  <observedMeasurement>
-0.039

$$$$
>  <variantNotation>
E22A

>  <recordedEndpoint>
folding stability dG

>  <observedMeasurement>
1.32

$$$$
>  <variantNotation>
N13D

>  <recordedEndpoint>
folding stability dG

>  <observedMeasurement>
0.311

$$$$
>  <variantNotation>
K53D

>  <recordedEndpoint>
folding stability dG

>  <observedMeasurement>
-0.039

$$$$
>  <variantNotation>
E64V

>  <recordedEndpoint>
folding stability dG

>  <observedMeasurement>
-0.038

$$$$
>  <variantNotation>
N14F

>  <recordedEndpoint>
folding stability dG

>  <observedMeasurement>
0.397

$$$$
>  <variantNotation>
D56S

>  <recordedEndpoint>
folding stability dG

>  <observedMeasurement>
0.621

$$$$
>  <variantNotation>
F3A

>  <recordedEndpoint>
folding stability dG

>  <observedMeasurement>
0.526

$$$$
>  <variantNotation>
Q26K

>  <recordedEndpoint>
folding stability dG

>  <observedMeasurement>
1.07

$$$$
>  <variantNotation>
E57C

>  <recordedEndpoint>
folding stability dG

>  <observedMeasurement>
0.959

$$$$
>  <variantNotation>
K11F

>  <recordedEndpoint>
folding stability dG

>  <observedMeasurement>
0.176

$$$$
>  <variantNotation>
D56Q

>  <recordedEndpoint>
folding stability dG

>  <observedMeasurement>
1.51

$$$$
>  <variantNotation>
K48I

>  <recordedEndpoint>
folding stability dG

>  <observedMeasurement>
0.568

$$$$
>  <variantNotation>
H1W

>  <recordedEndpoint>
folding stability dG

>  <observedMeasurement>
1.34

$$$$
>  <variantNotation>
H24F

>  <recordedEndpoint>
folding stability dG

>  <observedMeasurement>
2.06

$$$$
>  <variantNotation>
A12F

>  <recordedEndpoint>
folding stability dG

>  <observedMeasurement>
0.361

$$$$
>  <variantNotation>
I7E

>  <recordedEndpoint>
folding stability dG

>  <observedMeasurement>
-0.7

$$$$
>  <variantNotation>
H16M

>  <recordedEndpoint>
folding stability dG

>  <observedMeasurement>
-0.101

$$$$
>  <variantNotation>
K48T

>  <recordedEndpoint>
folding stability dG

>  <observedMeasurement>
0.032

$$$$
>  <variantNotation>
P15C

>  <recordedEndpoint>
folding stability dG

>  <observedMeasurement>
0.845

$$$$
>  <variantNotation>
R66Y

>  <recordedEndpoint>
folding stability dG

>  <observedMeasurement>
0.091

$$$$
>  <variantNotation>
D29N

>  <recordedEndpoint>
folding stability dG

>  <observedMeasurement>
1.49

$$$$
>  <variantNotation>
N25C

>  <recordedEndpoint>
folding stability dG

>  <observedMeasurement>
1.41

$$$$
>  <variantNotation>
E6K

>  <recordedEndpoint>
folding stability dG

>  <observedMeasurement>
-0.498

$$$$
>  <variantNotation>
N13A

>  <recordedEndpoint>
folding stability dG

>  <observedMeasurement>
0.764

$$$$
>  <variantNotation>
Y65S

>  <recordedEndpoint>
folding stability dG

>  <observedMeasurement>
-0.451

$$$$
>  <variantNotation>
S8P

>  <recordedEndpoint>
folding stability dG

>  <observedMeasurement>
-0.067

$$$$
>  <variantNotation>
H16K

>  <recordedEndpoint>
folding stability dG

>  <observedMeasurement>
0.147

$$$$
>  <variantNotation>
N14V

>  <recordedEndpoint>
folding stability dG

>  <observedMeasurement>
-0.058

$$$$
>  <variantNotation>
S8Y

>  <recordedEndpoint>
folding stability dG

>  <observedMeasurement>
0.782

$$$$
>  <variantNotation>
S60T

>  <recordedEndpoint>
folding stability dG

>  <observedMeasurement>
0.912

$$$$
>  <variantNotation>
D41W

>  <recordedEndpoint>
folding stability dG

>  <observedMeasurement>
0.916

$$$$
>  <variantNotation>
Q36M

>  <recordedEndpoint>
folding stability dG

>  <observedMeasurement>
1.31

$$$$
>  <variantNotation>
D56V

>  <recordedEndpoint>
folding stability dG

>  <observedMeasurement>
1.02

$$$$
>  <variantNotation>
S8A

>  <recordedEndpoint>
folding stability dG

>  <observedMeasurement>
1.56

$$$$
>  <variantNotation>
E43Q

>  <recordedEndpoint>
folding stability dG

>  <observedMeasurement>
0.669

$$$$
>  <variantNotation>
K32L

>  <recordedEndpoint>
folding stability dG

>  <observedMeasurement>
0.566

$$$$
>  <variantNotation>
K55A

>  <recordedEndpoint>
folding stability dG

>  <observedMeasurement>
1.67

$$$$
>  <variantNotation>
L10W

>  <recordedEndpoint>
folding stability dG

>  <observedMeasurement>
-0.69

$$$$
>  <variantNotation>
F21C

>  <recordedEndpoint>
folding stability dG

>  <observedMeasurement>
0.68

$$$$
>  <variantNotation>
A42F

>  <recordedEndpoint>
folding stability dG

>  <observedMeasurement>
0.065

$$$$
>  <variantNotation>
E35H

>  <recordedEndpoint>
folding stability dG

>  <observedMeasurement>
-0.572

$$$$
>  <variantNotation>
D41E

>  <recordedEndpoint>
folding stability dG

>  <observedMeasurement>
1.33

$$$$
>  <variantNotation>
A39C

>  <recordedEndpoint>
folding stability dG

>  <observedMeasurement>
0.897

$$$$
>  <variantNotation>
A12L

>  <recordedEndpoint>
folding stability dG

>  <observedMeasurement>
0.297

$$$$
>  <variantNotation>
I62W

>  <recordedEndpoint>
folding stability dG

>  <observedMeasurement>
-0.3

$$$$
>  <variantNotation>
Q50M

>  <recordedEndpoint>
folding stability dG

>  <observedMeasurement>
1

$$$$
>  <variantNotation>
D29T

>  <recordedEndpoint>
folding stability dG

>  <observedMeasurement>
0.539

$$$$
>  <variantNotation>
Q36L

>  <recordedEndpoint>
folding stability dG

>  <observedMeasurement>
1.02

$$$$
>  <variantNotation>
T33N

>  <recordedEndpoint>
folding stability dG

>  <observedMeasurement>
1.07

$$$$
>  <variantNotation>
T33E

>  <recordedEndpoint>
folding stability dG

>  <observedMeasurement>
0.363

$$$$
>  <variantNotation>
T33I

>  <recordedEndpoint>
folding stability dG

>  <observedMeasurement>
0.854

$$$$
>  <variantNotation>
S60A

>  <recordedEndpoint>
folding stability dG

>  <observedMeasurement>
1.48

$$$$
>  <variantNotation>
A12N

>  <recordedEndpoint>
folding stability dG

>  <observedMeasurement>
0.287

$$$$
>  <variantNotation>
K68M

>  <recordedEndpoint>
folding stability dG

>  <observedMeasurement>
0.491

$$$$
>  <variantNotation>
K32H

>  <recordedEndpoint>
folding stability dG

>  <observedMeasurement>
0.348

$$$$
>  <variantNotation>
Q26E

>  <recordedEndpoint>
folding stability dG

>  <observedMeasurement>
-0.511

$$$$
>  <variantNotation>
D29E

>  <recordedEndpoint>
folding stability dG

>  <observedMeasurement>
1.24

$$$$
>  <variantNotation>
H16S

>  <recordedEndpoint>
folding stability dG

>  <observedMeasurement>
-0.066

$$$$
>  <variantNotation>
Q50Y

>  <recordedEndpoint>
folding stability dG

>  <observedMeasurement>
0.509

$$$$
>  <variantNotation>
N13E

>  <recordedEndpoint>
folding stability dG

>  <observedMeasurement>
0.701

$$$$
>  <variantNotation>
K68A

>  <recordedEndpoint>
folding stability dG

>  <observedMeasurement>
0.786

$$$$
>  <variantNotation>
K32A

>  <recordedEndpoint>
folding stability dG

>  <observedMeasurement>
0.452

$$$$
>  <variantNotation>
N38C

>  <recordedEndpoint>
folding stability dG

>  <observedMeasurement>
0.923

$$$$
>  <variantNotation>
N25D

>  <recordedEndpoint>
folding stability dG

>  <observedMeasurement>
0.646

$$$$
>  <variantNotation>
K55C

>  <recordedEndpoint>
folding stability dG

>  <observedMeasurement>
2.15

$$$$
>  <variantNotation>
K19R

>  <recordedEndpoint>
folding stability dG

>  <observedMeasurement>
1.15

$$$$
>  <variantNotation>
H59N

>  <recordedEndpoint>
folding stability dG

>  <observedMeasurement>
0.996

$$$$
>  <variantNotation>
D18C

>  <recordedEndpoint>
folding stability dG

>  <observedMeasurement>
1.97

$$$$
>  <variantNotation>
Q36E

>  <recordedEndpoint>
folding stability dG

>  <observedMeasurement>
0.904

$$$$
>  <variantNotation>
N25T

>  <recordedEndpoint>
folding stability dG

>  <observedMeasurement>
0.573

$$$$
>  <variantNotation>
D5E

>  <recordedEndpoint>
folding stability dG

>  <observedMeasurement>
0.721

$$$$
>  <variantNotation>
A39I

>  <recordedEndpoint>
folding stability dG

>  <observedMeasurement>
0.873

$$$$
>  <variantNotation>
V9G

>  <recordedEndpoint>
folding stability dG

>  <observedMeasurement>
0.417

$$$$
>  <variantNotation>
F3K

>  <recordedEndpoint>
folding stability dG

>  <observedMeasurement>
0.26

$$$$
>  <variantNotation>
N13L

>  <recordedEndpoint>
folding stability dG

>  <observedMeasurement>
1.44

$$$$
>  <variantNotation>
V44L

>  <recordedEndpoint>
folding stability dG

>  <observedMeasurement>
1.37

$$$$
>  <variantNotation>
Q26F

>  <recordedEndpoint>
folding stability dG

>  <observedMeasurement>
-0.21

$$$$
>  <variantNotation>
H1R

>  <recordedEndpoint>
folding stability dG

>  <observedMeasurement>
0.829

$$$$
>  <variantNotation>
D29G

>  <recordedEndpoint>
folding stability dG

>  <observedMeasurement>
0.771

$$$$
>  <variantNotation>
Q37N

>  <recordedEndpoint>
folding stability dG

>  <observedMeasurement>
1.38

$$$$
>  <variantNotation>
E67M

>  <recordedEndpoint>
folding stability dG

>  <observedMeasurement>
0.866

$$$$
>  <variantNotation>
K53F

>  <recordedEndpoint>
folding stability dG

>  <observedMeasurement>
0.261

$$$$
>  <variantNotation>
K32D

>  <recordedEndpoint>
folding stability dG

>  <observedMeasurement>
-0.682

$$$$
>  <variantNotation>
D29K

>  <recordedEndpoint>
folding stability dG

>  <observedMeasurement>
1.79

$$$$
>  <variantNotation>
K68D

>  <recordedEndpoint>
folding stability dG

>  <observedMeasurement>
-0.648

$$$$
>  <variantNotation>
E6Q

>  <recordedEndpoint>
folding stability dG

>  <observedMeasurement>
-0.376

$$$$
>  <variantNotation>
Q37Y

>  <recordedEndpoint>
folding stability dG

>  <observedMeasurement>
0.718

$$$$
>  <variantNotation>
S8G

>  <recordedEndpoint>
folding stability dG

>  <observedMeasurement>
0.671

$$$$
